target: high affinity zinc uptake system (Zrt1p) (Saccharomyces cerevisiae); construct: endogenous in cells; host or cells: S. cerevisiae DY1457 (wild type, zinc-limited) and ZHY2 (zrt2); one kinetic value comes from ZHY1 carrying pOE1 (ZRT1 ORF under the GAL1 promoter); experiment: 65Zn uptake assay in yeast, high affinity zinc uptake system; format: cell-based; settings: 20 μM added metal, 2 μM 65Zn, five minutes, zinc-limited wild type
Sequence (P32804 whole entry): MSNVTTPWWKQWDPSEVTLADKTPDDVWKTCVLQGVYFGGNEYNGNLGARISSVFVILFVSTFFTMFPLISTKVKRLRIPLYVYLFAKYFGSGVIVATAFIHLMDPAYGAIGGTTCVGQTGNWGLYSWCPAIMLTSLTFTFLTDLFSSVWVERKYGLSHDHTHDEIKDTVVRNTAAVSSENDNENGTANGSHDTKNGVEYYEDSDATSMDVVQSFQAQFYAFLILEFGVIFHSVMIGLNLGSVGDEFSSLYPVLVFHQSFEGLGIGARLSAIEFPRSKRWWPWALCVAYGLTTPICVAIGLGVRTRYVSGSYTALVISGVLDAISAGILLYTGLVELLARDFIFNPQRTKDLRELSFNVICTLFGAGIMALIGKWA
assay-readout: effect on zinc uptake by the high affinity system

Use these answered entries as a reference point.
[Cl-].[Cl-].[Mg+2]: unaffected
[Cl][Fe]([Cl])[Cl]: unaffected
[Cl][Cu][Cl]: inhibitory
[Cl][Mn][Cl]: unaffected
[Zn+2]: inhibitory
[Cl-].[Cl-].[Co+2]: unaffected
[Cl][Ni][Cl]: unaffected

Given `[Fe+2]` , state its recorded effect on zinc uptake by the high affinity system.
inhibitory

====

biological target: IRT1 (Arabidopsis thaliana, UniProt Q38856); construct: contain a single 1017 bp open reading frame capable of encoding a polypeptide of 339 amino acids; expressed in transfected cells; host or cells: S. cerevisiae fet3 fet4 strain DEY1453 carrying pIRT-1 (pFL61 library vector, phosphoglycerate kinase promoter); assay: 55Fe uptake in fet3 fet4 yeast expressing IRT1; type: cell-based; conditions: 10 μM metal, 10 times the radiolabeled iron, Fe(II) with 1 mM ascorbate, 10 min
Sequence (Q38856 9-347 limits assumed): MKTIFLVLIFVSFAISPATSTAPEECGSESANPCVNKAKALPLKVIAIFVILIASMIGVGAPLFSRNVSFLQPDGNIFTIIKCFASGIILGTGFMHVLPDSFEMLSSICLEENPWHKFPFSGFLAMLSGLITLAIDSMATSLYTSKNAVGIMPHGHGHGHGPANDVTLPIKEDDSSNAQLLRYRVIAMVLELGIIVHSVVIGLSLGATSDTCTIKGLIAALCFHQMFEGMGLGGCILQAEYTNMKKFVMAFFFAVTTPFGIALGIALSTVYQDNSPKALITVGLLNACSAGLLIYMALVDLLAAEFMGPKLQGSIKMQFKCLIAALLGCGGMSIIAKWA
assay-readout: effect on the rate of iron uptake by IRT1

[Cl][Cd][Cl]: potent inhibitors
[Fe+2]: potent inhibitors
[Zn+2]: no significant effect
[Cl-].[Cl-].[Co+2]: no significant effect
[Cl-].[Cl-].[Sr+2]: no significant effect

Given `[Cl][Ni][Cl]` , state its recorded effect on the rate of iron uptake by IRT1.
no significant effect

Given `[Cl][Mn][Cl]` , state its recorded effect on the rate of iron uptake by IRT1.
no significant effect

Given `[Cl][Cu][Cl]` , state its recorded effect on the rate of iron uptake by IRT1.
no significant effect

Data provenance is patent US6590140B1.
